GI50: recorded values
test system: HT-29; assay: NCI tumour cell line growth inhibition, 48 h
Calls of active or inactive are those of the source. Rule as the data show it: active = GI50 up to about 1.1 µM and inactive = higher.
observation type: GI50

- compound: "CC1=CC(=O)c2cccc(O)c2C1=O"
  reported: "4.27 µM (inactive)"
- compound: "CCCC(=O)CC(C)C(=O)C(=O)NC12CC3CC(CC(C3)C1)C2 (stereo unspecified)"
  reported: "> 100 µM (inactive)"
- compound: "CC1C(c2ccccc2O)c2cc3c(cc2OC1N1CCOCC1)OCO3 (stereo unspecified)"
  reported: "26.9 µM (inactive)"
- compound: "O=C1CCCc2c(O)ccc(O)c21"
  reported: "> 100 µM (inactive)"
- compound: "N#CC(C#N)=C1CCC2C(=C(C#N)C#N)CCC12 (stereo unspecified)"
  reported: "> 100 µM (inactive)"
- compound: "OC1c2ccccc2CCC1C(O)(C(F)(F)F)C(F)(F)F (stereo unspecified)"
  reported: "> 100 µM (inactive)"
- compound: "NC(=O)c1ncn2c(=O)n(CCCl)nnc12 [MITOZOLOMIDE]"
  reported: "156 µM (inactive)"
- compound: "COc1cc(Br)c(C2OCCCO2)cc1OCc1ccccc1"
  reported: "> 100 µM (inactive)"
- compound: "Cc1ccc(C(=O)Nc2ccc(CP(=O)(O)O)cc2CP(=O)(O)O)cc1NC(=O)c1cccc(NC(=O)Nc2cccc(C(=O)Nc3cc(C(=O)Nc4ccc(CP(=O)(O)O)cc4CP(=O)(O)O)ccc3C)c2)c1"
  reported: "> 100 µM (inactive)"
- compound: "O=C(c1ccco1)N(C(=S)N1CCN(c2ccccn2)CC1)C1CCCCC1"
  reported: "> 100 µM (inactive)"
- compound: "Cn1c(=O)nc2n(-c3cccc(Cl)c3)c3ccccc3nc-2c1=O"
  reported: "4.53 µM (inactive)"
- compound: "O=S(=O)(c1ccc(/N=C2\\NC(c3ccc(O)cc3)(c3ccccc3O)c3ccccc32)cc1)c1ccc(/N=C2/NC(c3ccc(O)cc3)(c3ccccc3O)c3ccccc32)cc1 (stereo unspecified)"
  reported: "3.09 µM (inactive)"
- compound: "CCOC(=O)[C@H]1CSC[C@@H](C(=O)OC)N1"
  reported: "> 100 µM (inactive)"
- compound: "Oc1c(CN2CCN(c3ccccc3)CC2)cc(Br)c2cccnc12"
  reported: "10.9 µM (inactive)"
- compound: "CN(C)NC(=S)NC12CC3CC(CC(C3)C1)C2"
  reported: "> 100 µM (inactive)"
- compound: "COc1cc(CNc2nc3ccc(C(F)(F)F)cc3nc2-c2ccccc2)cc(OC)c1OC"
  reported: "32.9 µM (inactive)"
- compound: "COC(=O)C1CCC(=O)N1CN(C(C)=O)c1cccc(O)c1 (stereo unspecified)"
  reported: "> 100 µM (inactive)"
- compound: "CCOc1ccc(NC(=O)C(=O)CC(=O)C2=C(C)Nc3ccccc3S2)cc1"
  reported: "> 50 µM (inactive)"
- compound: "COc1ccc(C(=O)/C=C/c2ccc(OCC(=N)N)cc2)cc1"
  reported: "15.3 µM (inactive)"
- compound: "Cc1ccc2c(c1)C(=O)C(Cc1ccccc1C(=O)O)C2 (stereo unspecified)"
  reported: "> 100 µM (inactive)"
- compound: "Cc1ccc2c(c1C)C(=O)/C(=C/c1cccc(C)c1C(=O)O)C2"
  reported: "85.5 µM (inactive)"
- compound: "Nc1nc(NC2C=C(CO)C(O)C2O)c([N+](=O)[O-])c(=O)[nH]1 (stereo unspecified)"
  reported: "> 100 µM (inactive)"
- compound: "CC(=O)O[C@H]1CCC2[C@@H]3CCC4Nc5c(cnn5-c5ccccc5)C[C@]4(C)C3CC[C@@]21C (stereo partly specified)"
  reported: "8.24 µM (inactive)"
- compound: "COc1ccc(/C=C/C(=O)c2sc(NC(=S)NC(=O)c3ccc(Cl)cc3)nc2C)cc1OC"
  reported: "88.1 µM (inactive)"
- compound: "CCOC(=O)C(C[Si](C)(C)C)P(=O)(OCC)OCC (stereo unspecified)"
  reported: "> 100 µM (inactive)"
- compound: "CNC(=O)C(NC(=O)[C@H](CC(C)C)NC(=O)[C@@H](S)CCN1C(=O)N(C)C(C)(C)C1=O)C(C)(C)C (stereo partly specified)"
  reported: "> 100 µM (inactive)"

// provenance: ChEMBL document CHEMBL1201862
